Every entry's value here was drawn from PubChem BioAssay (NCI).

Assay: NCI Yeast Anticancer Drug Screen. Data for the mlh1 rad18 strain (AID 175)
Settings: S. cerevisiae mlh1 rad18 strain growth inhibition; at 50.0 µM
The panel holds about 79,000 compounds, 15% with a hit somewhere; the sample as a whole holds those more often. The source made the active and inactive calls. Rule as the data show it: active = growth inhibition above about 70%; inactive = the rest.
The reply should be one of these categories: active, inactive

Exam item: Can you look up the reported call for CCCCCCCCCCCC[N+](C)(C)C (tested in a mixture with another compound) for me?
Marked response: inactive

Exam item: Lab log entry: O=c1nc(N2CCCC2)nc(N2CCCC2)s1 — outcome as called in the assay?
Marked response: inactive

Exam item: What classification did O=C1/C(=C/c2ccccc2Cl)COc2ccccc21 end up with in this test?
Marked response: active

Exam item: Recorded test outcome, item c1ccc(CCNCc2ccco2)nc1
Marked response: inactive

Exam item: Call for entry C[n+]1cc2c3ccccc3ccc2c2ccccc21 :
Marked response: inactive

Exam item: Field: outcome | Entry: CCC(c1ccc(O)cc1)C(O)(CC)c1ccc(O)cc1 (centres undefined)
Marked response: inactive

Exam item: # outcome recorded in this test, key = CN(Cc1cc(C(C)(C)C)cc(Br)c1O)Cc1cc(C(C)(C)C)cc(Br)c1O
Marked response: inactive

Exam item: Field: outcome | Entry: CCCCCCCCCC(=O)CC(=O)c1c(O)cccc1O
Marked response: active

Exam item: Which result was noted for this compound in the test: CCC1=C(c2ccc(OC(C)=O)cc2)Cc2cc(OC(C)=O)ccc21
Marked response: inactive

Exam item: Entry O=[N+]([O-])c1ccc(S(=O)(=O)C/C=C/CCl)c([N+](=O)[O-])c1 : call = ?
Marked response: active

Exam item: State the result this test recorded for Cc1cc(N(CCOS(C)(=O)=O)CCOS(C)(=O)=O)ccc1C=Nc1cccc(Cl)c1 .
Marked response: active

Exam item: Hello, I am checking results. What call was entered for CCCOC(=O)C(Br)C(Br)C(=O)OCCC (centres undefined) ?
Marked response: active

Exam item: Which result was noted for this compound in the test: N#C/C(=C/c1ccccc1B(O)O)C(=O)O
Marked response: inactive

Exam item: For this compound, state the assay outcome: CCCCCCCCCCNC(=O)CBr
Marked response: active

Exam item: In this assay, the call recorded for O=C1CSC(=S)N1c1cccc(Cl)c1 was what?
Marked response: active

Exam item: Fill in: this test's call for O=C(c1ccccc1)N(C1CCCCC1)C1CCCCC1 is ___
Marked response: active

Exam item: Give the logged outcome of this assay for the following compound: COc1ccc2c(c1)CCCN2CCCCCCCCCCN1CCCCC1
Marked response: inactive

Exam item: Any idea what this test logged for Oc1ccc(N=Nc2cc(Cl)ccc2Cl)cc1 ?
Marked response: active

Exam item: Called result for O=C1c2ccccc2C(=O)c2c1ccc(C(=O)O)c2-c1ccc2ccccc2c1
Marked response: active

Exam item: Hello, I am checking results. What call was entered for COc1ccc(-c2[nH]c(-c3ccc(OC)cc3)c(-c3ccccn3)c2-c2ccccn2)cc1 ?
Marked response: active

Exam item: In this assay, the call recorded for Cc1cc(C)[nH]c(=S)n1.[Pt] was what?
Marked response: inactive

Exam item: Answer briefly: the call reported for c1ccc(CN2CCC3(CC2)SSC2(CCN(Cc4ccccc4)CC2)SS3)cc1 in this assay.
Marked response: inactive

Exam item: So what was the verdict on CC(=O)Nc1[c-]cccc1.CC(=O)Nc1[c-]cccc1.CC(=O)O.CC(=O)O.[Pd].[Pd] in this test?
Marked response: active

Exam item: Tell me the assay call for O=[N+]([O-])/C=C/c1c[nH]c2c1ccc1ccccc12 please.
Marked response: active

====

Assay: NCI Yeast Anticancer Drug Screen. Data for the cln2 rad14 strain (AID 165);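 also: 0% = growth equal to vehicle treated cultures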
Details: S. cerevisiae cln2 rad14 strain, at 50.0 µM (retest, dose inferred, filed as 5.0)
Compounds without any hit were thinned out: in the full panel of roughly 79,000, 15% have a hit. Calls of active or inactive are those of the source. Rule as the data show it: active = growth inhibition above about 70%; inactive = the rest.
The reply should name one outcome from 1 (active), -1 (inactive)

Exam item: Name the outcome recorded for Cc1ccccc1C(=O)C(C)c1ccccc1 (configuration not stated) in the assay.
Marked response: -1

Exam item: Per the assay record, what outcome was assigned to CC(C)(C)OC(=O)c1ccc(NCC2=C(Br)C(=O)C=CC2=O)cc1 ?
Marked response: 1

Exam item: Each molecule tested received a call. Report the one for Cc1ccc(N=C(N)Nc2ccc(C)cn2)nc1 .
Marked response: 1

Exam item: Which outcome was assigned to COC(=O)/C=C(\Cl)C(=O)OC in this test?
Marked response: 1

Exam item: // outcome(item) with item = OC1(c2ccccc2)CN(CCl)CC(c2ccccc2)O1 (configuration not stated)
Marked response: -1

Exam item: Could you kindly confirm the outcome this assay logged for O=C(Nc1ccc(C2=NCCN2)cc1)c1ccc(C(=O)Nc2ccc(C3=NCCN3)cc2)c(Cl)c1 ?
Marked response: 1

Exam item: Hi, sorry to bother you, what did the test record for Cc1cc(Cc2cccc(Cl)c2)ccc1O ?
Marked response: 1

Exam item: Recorded test outcome, item O=C1C=CC(=O)N1c1ccc(-c2nc3ccccc3o2)cc1
Marked response: 1

Exam item: What call does the record list for FC(F)(F)c1cc(NC(=S)SC2CCCCC2)ccc1Cl ?
Marked response: 1

Exam item: Fill in: this test's call for CCC(C)Sc1nc2c([nH]1)c(=S)n(C)c(=O)n2C (configuration not stated) is ___
Marked response: -1

Exam item: So what was the verdict on Oc1ccccc1C1N(Cc2ccc(Cl)cc2)CCN1Cc1ccc(Cl)cc1 in this test?
Marked response: -1

Exam item: Which outcome did this test record for the molecule CCOC(=O)C[P+](c1ccc(C)cc1)(c1ccc(C)cc1)c1ccc(C)cc1 ?
Marked response: 1

====

Experiment: NCI Yeast Anticancer Drug Screen. Data for the bub3 strain (AID 167)
Conditions: S. cerevisiae bub3 mutant strain, at 50.0 µM, hits give high values
The panel holds about 79,000 compounds, 15% with a hit somewhere; the sample as a whole holds those more often.
Short version: growth inhibition at least 90% is label 1, less is label 0.

Exam item: Quick check: does COC(=O)c1cc(-c2ccc([N+](=O)[O-])cc2)c2c(=O)n(-c3ccccc3)[nH]c2n1 have growth inhibition greater than or equal to 90%?
Marked response: label 0

Exam item: Determine whether this compound has growth inhibition no lower than 90%: O=C1C(Cl)=C(Nc2cc(Cl)ccc2Cl)C(=O)c2ccccc21
Marked response: label 1

Exam item: Decide: is the reported value of growth inhibition for O=C(O)c1ccc([N+](=O)[O-])o1 equal to or greater than 90%?
Marked response: label 0

Exam item: Decide: is the reported value of growth inhibition for CCCCCCCCCCCCCCC(O)C[N+](C)(CCO)CCO (stereo unspecified) equal to or greater than 90%?
Marked response: label 0

Exam item: Does CCCCN(CCO)CC(O)Cn1cnc2c(N)ncnc21 (stereo unspecified) (tested in a mixture with another compound) have a reported growth inhibition of at least 90%?
Marked response: label 0

Exam item: Could you tell me if the measured growth inhibition of CN1CCN(CCCN)CC1 reaches 90% or more?
Marked response: label 0

Exam item: # bool: growth inhibition of CCCCN(CCCC)CC(O)c1cccc2c(Cl)cccc12 (stereo unspecified) >= 90%
Marked response: label 1

Exam item: Dear colleague, could you confirm whether CCOC(=O)C(=N\Nc1cccc(C)c1C)/C(C)=N\NC(N)=S has growth inhibition at or above 90%?
Marked response: label 0

Exam item: Confirm if growth inhibition reported for the compound Oc1cc(O)c2c(c1)OC(c1ccc(O)c(O)c1)C(OC1(c3cc(O)c(O)c(O)c3)Oc3cc(O)cc(O)c3C(O)C1O)C2 (stereo unspecified) is 90% or above.
Marked response: label 0

Exam item: Kindly determine if growth inhibition recorded for CN(C)CCOc1cc2c(c3ccccc13)-c1ccccc1C2O (stereo unspecified) is above or exactly 90%.
Marked response: label 0

====

Assign growth inhibition to each entry below.
Assay: NCI Yeast Anticancer Drug Screen. Data for the mec2-1 strain (AID 157)
Conditions: S. cerevisiae mec2-1 strain, at 50.0 µM, hits give high values
This is part of a sample that, as a whole, favours compounds with a hit. Of some 79,000 tested, about 15% had one in any assay.
Provide only the numeric value, understood in %.

Entry O=[N+]([O-])c1cc(Cl)cc(C(c2cc(Cl)cc([N+](=O)[O-])c2O)C(Cl)(Cl)Cl)c1O , growth inhibition reported as 98.4

Sample COc1ccc2c(c1OC)OCC2C (configuration not stated) ; growth inhibition observed: 71

Briefly, growth inhibition measured for CCN(CC)CCCC(C)Nc1cc(F)cc2cccnc12 (configuration not stated) : 63.2

According to the records, this molecule Cc1cc(Cc2ccccc2)ccc1O displays growth inhibition of 96.4

Item: COc1ccc(C2=NN(c3ccccc3)C[N+](c3ccc(OC)cc3)=N2)cc1 | growth inhibition: 97.5

Entry FC(F)(F)c1ccccc1NC(=S)SCc1ccco1 — recorded growth inhibition = 76.3

The value of growth inhibition measured for the molecule CC(C)(Cl)C(Cl)CC/C(CBr)=C(\Cl)CCl (configuration not stated) turned out to be 89.9
